Molecular target: KRAS G12S (Homo sapiens (Human), UniProt P01116+P62937, G12S)
Sequence (P01116-2 other isoform, or with tags, fused parts or gaps G12S): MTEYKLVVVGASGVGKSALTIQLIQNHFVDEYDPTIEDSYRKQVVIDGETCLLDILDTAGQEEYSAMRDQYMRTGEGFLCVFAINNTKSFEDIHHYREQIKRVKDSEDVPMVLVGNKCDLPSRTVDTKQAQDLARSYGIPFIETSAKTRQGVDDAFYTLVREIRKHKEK
Sequence (P62937 whole entry): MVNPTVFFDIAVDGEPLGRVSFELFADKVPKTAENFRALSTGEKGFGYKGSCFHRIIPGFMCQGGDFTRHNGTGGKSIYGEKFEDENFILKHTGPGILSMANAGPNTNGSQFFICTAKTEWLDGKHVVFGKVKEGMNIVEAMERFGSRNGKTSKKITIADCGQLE
Assay: Ras-Raf (BRAF RBD) disruption / FRET / MOA assay, KRAS G12S
Format: biochemical
Conditions: Ras-Raf disruption/FRET/MOA assay; class symbols; read-out: KRAS G12S FRET data IC50
Recorded measurements of IC50, one per entry
parameter: IC50

1) C=CC(=O)N1CC[C@]2(C1)OCN([C@H](C(=O)N[C@H]1Cc3cccc(n3)-c3ccc4c(c3)c(c(-c3cccnc3[C@H](C)OC)n4CC)CC(C)(C)COC(=O)[C@@H]3CCCN(N3)C1=O)C(C)C)C2=O (atropisomer, axis not shown) ... 1 to 10 µM
2) C=CC(=O)N1CC[C@H](C(=O)N2CC[C@H](C)[C@H]2C(=O)N[C@H]2Cc3cccc(c3)-c3ccc4c(c3)c(c(-c3cccnc3[C@H](C)OC)n4CC)CC(C)(C)COC(=O)[C@@H]3CCCN(N3)C2=O)C1 (atropisomer, axis not shown) ... > 10 µM
3) C#CCn1c(-c2cccnc2[C@H](C)OC)c2c3cc(ccc31)-c1cccc(c1)C[C@H](NC(=O)[C@H](C(C)C)N(C)C(=O)[C@H]1CCN(C(=O)C=C)C1)C(=O)N1CCC[C@H](N1)C(=O)OCC(C)(C)C2 (atropisomer, axis not shown) ... 1 to 10 µM
4) C=CS(=O)(=O)N1CC2(CCN([C@H](C(=O)N[C@H]3Cc4cc(O)cc(c4)-c4ccc5c(c4)c(c(-c4cccnc4[C@H](C)OC)n5CC)CC(C)(C)COC(=O)[C@@H]4CCCN(N4)C3=O)C(C)C)C2=O)C1 (atropisomer, axis not shown) ... 0.1 to 1 µM
